# Protocol summary: Displacement of FITC-conjugated JQ1 from […] mutant (unknown origin) expressed in Escherichia coli BL21-DE3 rosetta cells incubated for 15 mins by competitive fluorescence polarization assay
# Set-up: species or system Homo sapiens
Kindly supply the reported pIC50 values for the records listed here.
The value called pIC50 is obtained by taking minus log10 of the concentration in mol/L.

Write down pIC50 measured for item COc1ccc2c(c1)C(c1ccc(Cl)cc1)=N[C@@H]([C@@H](C)C(=O)NCCCCCCCNC(=O)COc1cccc3c1C(=O)N(C1CCC(=O)NC1=O)C3=O)c1nnc(C)n1-2 (stereo partly drawn)
6.99

Write down pIC50 measured for item COc1ccc2c(c1)C(c1ccc(Cl)cc1)=N[C@@H]([C@@H](C)C(=O)NCCOCCNC(=O)COc1cccc3c1C(=O)N(C1CCC(=O)NC1=O)C3=O)c1nnc(C)n1-2 (stereo partly drawn)
6.71

Write down pIC50 measured for item COc1ccc2c(c1)C(c1ccc(Cl)cc1)=N[C@@H]([C@@H](C)C(=O)NCCOCCOCCNC(=O)COc1cccc3c1C(=O)N(C1CCC(=O)NC1=O)C3=O)c1nnc(C)n1-2 (stereo partly drawn)
6.84
